Hello, the source for this data is ChEMBL document CHEMBL2029270, in case you need it.

Reported IC50 is given for each of the following molecules.
target: Epidermal growth factor receptor (Homo sapiens); assay: Inhibition of human recombinant EGFR using Ulight-CAGAGAIETDKEYYTVKD as substrate after 15 mins by time-resolved fluorimetric analysis
Give the number; nM is assumed, so skip it.

CCOc1cc2ncc(C#N)c(Nc3ccc(F)c(Cl)c3)c2cc1NC(=O)CCN1CCCCC1: 2.21

Qu. Recorded IC50 for O=C(CCN1CCCCC1)Nc1ccc2ncnc(Nc3cccc(Br)c3)c2c1 , please?
Ans. 0.27

Qu. Recorded IC50 for C=CC(=O)Nc1cc2c(Nc3ccc(F)c(Cl)c3)c(C#N)cnc2cc1OCC , please?
Ans. 1.46

Qu. Recorded IC50 for CCOc1cc2ncc(C#N)c(Nc3ccc(F)c(Cl)c3)c2cc1NC(=O)CCN1CCOCC1 , please?
Ans. 2.02

Qu. Recorded IC50 for CCOc1cc2ncnc(Nc3ccc(F)c(Cl)c3)c2cc1NC(=O)CCN1CCCCC1 , please?
Ans. 0.51

###

assay: Chemical stability of the compound assessed as compound remaining at 1 uM after 1 hr at pH 7.4 in the presence of NAC; assay type: physicochemical; conditions: buffer, read-out: Stability
Reported remaining at 1 h, 1 µM is given for each of the following compounds.

C=CC(=O)Nc1ccc2ncnc(Nc3cccc(Br)c3)c2c1: 85.6%

Next, consider the following compound.
Qu. Recorded remaining at 1 h, 1 µM for CN(C)CCC(=O)Nc1ccc2ncnc(Nc3cccc(Br)c3)c2c1 , please?
Ans. 100%

###

assay: Chemical stability of the compound assessed as compound remaining at 1 uM after 1 hr at pH 7.4 in the presence of DTT; type: physicochemical; conditions: buffer, read-out: Stability
Reported remaining at 1 h, 1 µM is given for each of the following compounds.
Give the number; % is assumed, so skip it.

CN(C)CCC(=O)Nc1ccc2ncnc(Nc3cccc(Br)c3)c2c1: 99.2

Next, consider the following compound.
Qu. Recorded remaining at 1 h, 1 µM for C=CC(=O)Nc1ccc2ncnc(Nc3cccc(Br)c3)c2c1 , please?
Ans. 100

###

molecular target: Epidermal growth factor receptor (Homo sapiens, UniProt P00533, T790M); test: Inhibition of EGFR T790M mutant autophosphorylation in human NCI-H1975 cells after 1 hr by Western blot analysis
Sequence (P00533 whole entry T790M): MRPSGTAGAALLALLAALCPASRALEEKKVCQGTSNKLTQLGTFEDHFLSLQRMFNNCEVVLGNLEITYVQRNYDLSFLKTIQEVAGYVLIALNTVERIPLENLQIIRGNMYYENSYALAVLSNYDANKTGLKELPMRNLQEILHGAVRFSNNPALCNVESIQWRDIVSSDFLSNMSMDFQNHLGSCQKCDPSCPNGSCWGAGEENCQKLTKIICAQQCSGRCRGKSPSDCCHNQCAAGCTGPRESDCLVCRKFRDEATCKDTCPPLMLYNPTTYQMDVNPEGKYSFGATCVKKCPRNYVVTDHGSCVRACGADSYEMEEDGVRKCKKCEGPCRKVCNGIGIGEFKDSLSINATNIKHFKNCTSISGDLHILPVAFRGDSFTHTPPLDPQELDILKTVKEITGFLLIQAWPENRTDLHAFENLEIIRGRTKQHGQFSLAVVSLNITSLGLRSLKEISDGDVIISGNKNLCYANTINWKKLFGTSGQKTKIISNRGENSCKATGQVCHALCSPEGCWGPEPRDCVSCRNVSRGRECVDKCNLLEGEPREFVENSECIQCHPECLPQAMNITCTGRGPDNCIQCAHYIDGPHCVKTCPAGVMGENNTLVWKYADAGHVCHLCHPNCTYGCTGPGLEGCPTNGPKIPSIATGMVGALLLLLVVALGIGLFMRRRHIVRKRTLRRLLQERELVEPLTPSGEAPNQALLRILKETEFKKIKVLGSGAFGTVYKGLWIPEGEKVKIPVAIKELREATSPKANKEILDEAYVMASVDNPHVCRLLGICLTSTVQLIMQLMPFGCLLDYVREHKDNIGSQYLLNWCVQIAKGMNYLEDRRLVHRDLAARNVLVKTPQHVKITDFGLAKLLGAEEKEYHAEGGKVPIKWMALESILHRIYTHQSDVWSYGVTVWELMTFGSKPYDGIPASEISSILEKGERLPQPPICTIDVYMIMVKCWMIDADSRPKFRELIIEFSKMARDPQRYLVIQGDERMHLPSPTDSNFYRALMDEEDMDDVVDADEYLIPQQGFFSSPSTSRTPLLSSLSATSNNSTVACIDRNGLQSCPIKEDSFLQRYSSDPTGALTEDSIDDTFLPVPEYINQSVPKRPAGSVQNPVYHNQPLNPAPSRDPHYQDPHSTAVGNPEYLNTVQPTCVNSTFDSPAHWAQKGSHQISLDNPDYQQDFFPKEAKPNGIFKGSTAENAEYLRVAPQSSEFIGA
METRIC_NAME: IC50
Lab note: write values as number then unit, every time.

Qu. Recorded IC50 for CCOc1cc2ncc(C#N)c(Nc3ccc(OCc4ccccn4)c(Cl)c3)c2cc1NC(=O)CCN1CCCCC1 , please?
Ans. 150 nM

###

assay: Chemical stability of the compound assessed as compound remaining at 1 uM after 1 hr at pH 7.4 in the presence of cysteamine; format: physicochemical; conditions: buffer, read-out: Stability
Reported remaining at 1 h, 1 µM is given for each of the following molecules.

C=CC(=O)Nc1ccc2ncnc(Nc3cccc(Br)c3)c2c1: 20.1%

Next, consider the following molecule.
Qu. Recorded remaining at 1 h, 1 µM for CN(C)CCC(=O)Nc1ccc2ncnc(Nc3cccc(Br)c3)c2c1 , please?
Ans. 100%

###

Reported pIC50 is given for each of the following compounds.
molecular target: Epidermal growth factor receptor (Homo sapiens, UniProt P00533); test: Inhibition of human recombinant EGFR using Ulight-CAGAGAIETDKEYYTVKD as substrate after 15 mins by time-resolved fluorimetric analysis
Sequence (P00533 whole entry): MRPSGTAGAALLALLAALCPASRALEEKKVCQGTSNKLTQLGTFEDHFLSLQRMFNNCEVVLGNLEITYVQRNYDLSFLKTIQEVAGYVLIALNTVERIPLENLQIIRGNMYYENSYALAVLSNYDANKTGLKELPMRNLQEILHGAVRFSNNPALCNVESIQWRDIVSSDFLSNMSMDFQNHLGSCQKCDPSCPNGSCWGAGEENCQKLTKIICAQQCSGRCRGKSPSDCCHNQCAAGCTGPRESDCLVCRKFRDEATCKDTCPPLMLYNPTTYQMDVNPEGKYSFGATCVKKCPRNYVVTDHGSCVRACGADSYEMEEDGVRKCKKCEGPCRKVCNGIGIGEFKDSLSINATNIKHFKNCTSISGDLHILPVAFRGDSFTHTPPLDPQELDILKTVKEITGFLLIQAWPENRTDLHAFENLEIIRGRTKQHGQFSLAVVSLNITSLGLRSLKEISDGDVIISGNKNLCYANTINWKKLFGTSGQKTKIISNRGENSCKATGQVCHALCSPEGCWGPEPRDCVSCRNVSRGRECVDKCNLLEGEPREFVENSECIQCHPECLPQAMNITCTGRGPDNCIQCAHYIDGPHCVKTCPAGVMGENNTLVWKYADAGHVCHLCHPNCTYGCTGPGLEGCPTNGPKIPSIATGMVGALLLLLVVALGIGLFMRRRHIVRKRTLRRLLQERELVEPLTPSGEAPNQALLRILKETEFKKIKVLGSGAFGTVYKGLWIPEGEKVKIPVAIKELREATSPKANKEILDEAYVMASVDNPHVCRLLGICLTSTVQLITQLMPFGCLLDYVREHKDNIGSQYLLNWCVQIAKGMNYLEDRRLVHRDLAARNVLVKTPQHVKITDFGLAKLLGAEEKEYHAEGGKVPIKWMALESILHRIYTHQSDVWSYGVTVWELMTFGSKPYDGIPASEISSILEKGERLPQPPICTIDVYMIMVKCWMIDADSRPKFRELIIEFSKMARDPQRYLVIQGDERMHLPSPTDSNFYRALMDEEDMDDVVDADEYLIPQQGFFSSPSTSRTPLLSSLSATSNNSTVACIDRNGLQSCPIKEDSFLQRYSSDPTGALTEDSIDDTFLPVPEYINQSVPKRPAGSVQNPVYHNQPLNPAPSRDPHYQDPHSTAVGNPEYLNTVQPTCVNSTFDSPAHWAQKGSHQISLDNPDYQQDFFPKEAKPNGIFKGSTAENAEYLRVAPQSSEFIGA
In simple prose, pIC50 is minus the logarithm base ten of a concentration in moles per litre.

Use these answered entries as a reference point.
CCOc1cc2ncnc(Nc3ccc(F)c(Cl)c3)c2cc1NC(=O)CCN1CCOCC1: 9.54
C=CC(=O)Nc1cc2c(Nc3ccc(F)c(Cl)c3)ncnc2cc1OCC: 9.74
CN(C)CCC(=O)N(C)c1ccc2ncnc(Nc3cccc(Br)c3)c2c1: 7.76

Qu. Recorded pIC50 for CCOc1cc2ncnc(Nc3ccc(F)c(Cl)c3)c2cc1NC(=O)CCN(C)C , please?
Ans. 9.57

Qu. Recorded pIC50 for CCOc1cc2ncc(C#N)c(Nc3ccc(OCc4ccccn4)c(Cl)c3)c2cc1NC(=O)CCN1CCCCC1 , please?
Ans. 7.61
